# systemName: T1, c-erbB-2 ECD with a Ser-Gly-His6 C-terminal fusion (UniProt P04626 23-652)
# T1 construct: extracellular domain; Expressed from CHO cells, IMAC purified; coupled to a CM5 chip, coated on plates, or biotinylated with NHS-LC-biotin; also called c-erbB-2 extracellular domain; biotinylated c-erbB-2 ECD
# experimentNotes: SPR BIAcore
Entries and their Kd (mutant)/Kd (C6.5) values follow.
Lab note: jot down the number only; don't add units.

Example entries and their recorded answers appear below.
| binder | Kd (mutant)/Kd (C6.5) |
| --- | --- |
| C6.5S100aA (scFv, C6.5 VH CDR3 scan mutant; Kabat numbering) scFv: QVQLLQSGAELKKPGESLKISCKGSGYSFTSYWIAWVRQMPGKGLEYMGLIYPGDSDTKYSPSFQGQVTISVDKSVSTAYLQWSSLKPSDSAVYFCARHDVGYCASSNCAKWPEYFQHWGQGTLVTVSSGGGGSGGGGSGGGGSQSVLTQPPSVSAAPGQKVTISCSGSSSNIGNNYVSWYQQLPGTAPKLLIYGHTNRPAGVPDRFSGSKSGTSASLAISGFRSEDEADYYCAAWDDSLSGWVFGGGTKLTVLG | 1.8 |
| C6.5F100lA (scFv, C6.5 VH CDR3 scan mutant; Kabat numbering; also called F1001A) scFv: QVQLLQSGAELKKPGESLKISCKGSGYSFTSYWIAWVRQMPGKGLEYMGLIYPGDSDTKYSPSFQGQVTISVDKSVSTAYLQWSSLKPSDSAVYFCARHDVGYCSSSNCAKWPEYAQHWGQGTLVTVSSGGGGSGGGGSGGGGSQSVLTQPPSVSAAPGQKVTISCSGSSSNIGNNYVSWYQQLPGTAPKLLIYGHTNRPAGVPDRFSGSKSGTSASLAISGFRSEDEADYYCAAWDDSLSGWVFGGGTKLTVLG | 28.4 |
| C6.5Q101A (scFv, C6.5 VH CDR3 scan mutant; Kabat numbering) scFv: QVQLLQSGAELKKPGESLKISCKGSGYSFTSYWIAWVRQMPGKGLEYMGLIYPGDSDTKYSPSFQGQVTISVDKSVSTAYLQWSSLKPSDSAVYFCARHDVGYCSSSNCAKWPEYFAHWGQGTLVTVSSGGGGSGGGGSGGGGSQSVLTQPPSVSAAPGQKVTISCSGSSSNIGNNYVSWYQQLPGTAPKLLIYGHTNRPAGVPDRFSGSKSGTSASLAISGFRSEDEADYYCAAWDDSLSGWVFGGGTKLTVLG | 0.5 |

Problem: Annotate the binder C6.5N100dA (scFv, C6.5 VH CDR3 scan mutant; Kabat numbering) scFv: QVQLLQSGAELKKPGESLKISCKGSGYSFTSYWIAWVRQMPGKGLEYMGLIYPGDSDTKYSPSFQGQVTISVDKSVSTAYLQWSSLKPSDSAVYFCARHDVGYCSSSACAKWPEYFQHWGQGTLVTVSSGGGGSGGGGSGGGGSQSVLTQPPSVSAAPGQKVTISCSGSSSNIGNNYVSWYQQLPGTAPKLLIYGHTNRPAGVPDRFSGSKSGTSASLAISGFRSEDEADYYCAAWDDSLSGWVFGGGTKLTVLG with its measured Kd (mutant)/Kd (C6.5).
Result: 1.8

Problem: Output Kd (mutant)/Kd (C6.5) of C6.5K100gA (scFv, C6.5 VH CDR3 scan mutant; Kabat numbering) scFv: QVQLLQSGAELKKPGESLKISCKGSGYSFTSYWIAWVRQMPGKGLEYMGLIYPGDSDTKYSPSFQGQVTISVDKSVSTAYLQWSSLKPSDSAVYFCARHDVGYCSSSNCAAWPEYFQHWGQGTLVTVSSGGGGSGGGGSGGGGSQSVLTQPPSVSAAPGQKVTISCSGSSSNIGNNYVSWYQQLPGTAPKLLIYGHTNRPAGVPDRFSGSKSGTSASLAISGFRSEDEADYYCAAWDDSLSGWVFGGGTKLTVLG
Result: 0.6
